# Test system: EKVX NSCLC
# test_method_notes: NCI tumour cell line growth inhibition, 48 h
# Lookup of reported TGI keyed by entry

molecule | value_qualifier | TGI [µM]
CO/N=C1/c2sccc2[C@H](NC(=O)C(Cc2ccccc2)NC(=O)OC(C)(C)C)[C@@H]1O (stereo partly specified) | > | 100
CC(CO)(Nc1ccc([N+](=O)[O-])cc1[N+](=O)[O-])C(=O)O (stereo unspecified) | = | 71.3
Cc1[nH]nc(-c2ccon2)c1N=O | = | 31.3
CN1CCN(CCCCCN=c2cc3c(=O)n(CCCCCN4CCN(C)CC4)c(=O)c4c(NCCCCCN5CCN(C)CC5)cc5c(O)n(CCCCCN6CCN(C)CC6)c(=O)c2c5c4-3)CC1 | = | 17.2
Clc1ccc2oc(CCc3ccccc3)nc2c1 | > | 100
c1ccc(CC2COC(c3cccs3)=N2)cc1 (stereo unspecified) | > | 100
